# Lookup of reported cytotoxicity at 10 µM keyed by entry
- assay-explanation: Toxicity liver stage against HepG2, at 10uM
- Format: cell-based
- Set-up: test concentration 10 uM, cell line HepG2-A16-CD81EGFP
- run-parameters: human, HepG2-A16-CD81EGFP cells; read-out: INHIBITION

Take a look at these entries with their results.
>>> reported_measurement("O=C(N1CCOCC1)[C@@]12CCO[C@@H]1CCN(CC1CCC1)C2")
"11.1%"
>>> reported_measurement("N#Cc1c(N2CCN(CC3CCOC3)CC2)nc2ccccn12 (stereo not given)")
"1.37%"
>>> reported_measurement("O=C(c1cc[nH]n1)N1CC[C@@H]2CN(Cc3ccccc3)S(=O)(=O)[C@@H]2CC1")
"4.35%"
>>> reported_measurement("Cc1ccc(-c2nc(CNS(=O)(=O)N(C)C)[nH]c2-c2ccccn2)cc1")
"-0.678%"

Continue with the next compound.
**Q:** Look up and state reported cytotoxicity at 10 µM for `CC(C)c1cc(C(=O)N(c2ccc(F)cn2)C2CCOCC2)on1`
**A:** -9.01%

* * *

- assay-explanation: Toxicity liver stage against HepG2, at 10uM
- Assay type: cell-based
- Parameters: test concentration 10 uM, cell line HepG2-A16-CD81EGFP
- run-parameters: human, HepG2-A16-CD81EGFP cells; read-out: INHIBITION
observable: cytotoxicity at 10 µM (%)
A number alone suffices; assume %.

Take a look at these entries with their results.
>>> reported_measurement("CC(C)c1nc(C2CCCN2CCOCC2CC2)no1 (stereo not drawn)")
1.8
>>> reported_measurement("Cc1ncsc1CN1CCn2c(COCC3CC3)cnc2C1C (stereo not drawn)")
-1.82
>>> reported_measurement("CC(C)n1c2ccccc2c2c1cc(C(=O)NCCO)n2C(=O)N(C)C")
-93.8
>>> reported_measurement("Cc1noc(NCc2cc(F)ccc2F)n1")
-4.86
>>> reported_measurement("CN(Cc1cn2c(n1)CN(CC1CC1)CC2)Cc1ccco1")
1.39
>>> reported_measurement("CS(=O)(=O)CCN1CC(c2ccccc2)(c2ccccc2)CCC1=O")
0.623

**Q:** Look up and state reported cytotoxicity at 10 µM for CN1CCC(CNC(=O)c2ccc(O)nc2)c2ccccc21 (stereo not drawn)
**A:** 13.9

**Q:** Look up and state reported cytotoxicity at 10 µM for `COCc1ccc(CN[C@H]2C[C@@H](Cc3cc(CCO)on3)C2(C)C)o1`
**A:** -1.68

**Q:** Look up and state reported cytotoxicity at 10 µM for `CS(=O)(=O)N1CCc2[nH]cnc2C12CCN(C(=O)c1ccccc1)CC2`
**A:** -2.66

**Q:** Look up and state reported cytotoxicity at 10 µM for Cc1cnc(Nc2cccc(C3CCCN3C(=O)CO)n2)s1 (stereo not drawn)
**A:** -30.6

**Q:** Look up and state reported cytotoxicity at 10 µM for CC(C)c1noc(C(C)N2CCN(Cc3ccco3)CC2)n1 (stereo not drawn)
**A:** -7.67

**Q:** Look up and state reported cytotoxicity at 10 µM for O=C(NC1CC1)c1cc(C2CCCN(Cc3ccccn3)C2)no1 (stereo not drawn)
**A:** -31.9

* * *

# Lookup of reported cytotoxicity at 10 µM keyed by entry
- assay-explanation: Toxicity liver stage against HepG2, at 10uM
- Type: cell-based
- Design: test concentration 10 uM, cell line HepG2-A16-CD81EGFP
- run-parameters: human, HepG2-A16-CD81EGFP cells; read-out: INHIBITION
A number alone suffices; assume %.

**Q:** Look up and state reported cytotoxicity at 10 µM for `CCc1nnc(SCC(=O)N2CCc3[nH]nc(C4CCC4)c3C2)o1`
**A:** -5.22

**Q:** Look up and state reported cytotoxicity at 10 µM for CCc1cc(CN(C)C(=O)CN2CC(Cc3ccccc3)CC2=O)on1 (stereo not given)
**A:** -0.28

**Q:** Look up and state reported cytotoxicity at 10 µM for `Cn1ccc(CN2CC(Cc3nccc4cc[nH]c34)C2)n1`
**A:** 9.51

**Q:** Look up and state reported cytotoxicity at 10 µM for COc1ccccc1CCNC(=O)N(C)C(C)CS(C)(=O)=O (stereo not given)
**A:** -48.8

**Q:** Look up and state reported cytotoxicity at 10 µM for `COc1ccc(-n2cccn2)c(CN2CCC(O)(CO)CC2)c1`
**A:** 3.4

**Q:** Look up and state reported cytotoxicity at 10 µM for Cc1cc(C(=O)NCC2CCS(=O)(=O)C2)ccc1NC(=O)c1ccco1 (stereo not given)
**A:** 19

**Q:** Look up and state reported cytotoxicity at 10 µM for `N#CCc1ccc(NC(=O)N[C@H](CO)Cc2ccc(O)cc2)cc1`
**A:** -1.8

**Q:** Look up and state reported cytotoxicity at 10 µM for `Cc1cc(NCC2CCCCC2)n2ncnc2n1`
**A:** -2.1

**Q:** Look up and state reported cytotoxicity at 10 µM for `Cc1ncsc1C(=O)Nc1cccc(OCC(F)F)n1`
**A:** -1.4

**Q:** Look up and state reported cytotoxicity at 10 µM for `COC(=O)c1ccc(CN(C(C)C)C(C)C)o1`
**A:** 2.21

**Q:** Look up and state reported cytotoxicity at 10 µM for `Cc1cc(NCCO)nc(N2CCN(C)CC2)c1C#N`
**A:** -17.4

**Q:** Look up and state reported cytotoxicity at 10 µM for Cc1nc(C(=O)N2CCCC2c2cncc(CN3CCCC3)n2)co1 (stereo not given)
**A:** 8.99

**Q:** Look up and state reported cytotoxicity at 10 µM for `Cc1nn(-c2ccc(F)cc2)c2[nH]nc(N)c12`
**A:** 13.6

**Q:** Look up and state reported cytotoxicity at 10 µM for `Cc1ccccc1CN1CCCN(CCN2CCOC2=O)CC1`
**A:** -7.53

**Q:** Look up and state reported cytotoxicity at 10 µM for CCCc1noc(CCCC(=O)N2CCCC(n3ccnc3C)C2)n1 (stereo not given)
**A:** -2.5

**Q:** Look up and state reported cytotoxicity at 10 µM for `O=C(CC1CC1)N[C@@H]1CN(Cc2ccoc2)C[C@@H]2CCCO[C@@H]21`
**A:** 7.83

**Q:** Look up and state reported cytotoxicity at 10 µM for CSCCC(C)(O)CNS(=O)(=O)Cc1cccc(C)c1 (stereo not given)
**A:** 1.09

**Q:** Look up and state reported cytotoxicity at 10 µM for COc1ccc(C(CNC(=O)c2cnc(C)cn2)N2CCOCC2)cc1 (stereo not given)
**A:** 3.04

* * *

# Lookup of reported cytotoxicity at 10 µM keyed by entry
- assay-explanation: Toxicity liver stage against HepG2, at 10uM
- Type: cell-based
- Parameters: test concentration 10 uM, cell line HepG2-A16-CD81EGFP
- run-parameters: human, HepG2-A16-CD81EGFP cells; read-out: INHIBITION
A number alone suffices; assume %.

Take a look at these entries with their results.
>>> reported_measurement("Cc1nc(CN2CCN(C(=O)NC(C)c3cccnc3)CC2)cs1 (configuration not stated)")
-10.4
>>> reported_measurement("CN1CCCC(c2ccnc(C(=O)NCC3CC3)c2)C1 (configuration not stated)")
3.89
>>> reported_measurement("O=C(NCC(O)c1cccs1)c1ccco1 (configuration not stated)")
-14.7
>>> reported_measurement("CN(C)CCN1CC2(CCCN(c3ncc(Cl)cc3F)C2)CCC1=O (configuration not stated)")
-13.6
>>> reported_measurement("N#Cc1nccnc1N1CCC(COCc2ccccc2)C1 (configuration not stated)")
7.78
>>> reported_measurement("Cc1ccc(C(=O)N2CC3(CCCCC3)c3cc(C(=O)O)ccc32)cn1")
11.2

**Q:** Look up and state reported cytotoxicity at 10 µM for `Cc1nc(CNC(=O)c2cc(COc3ccccc3)[nH]n2)n[nH]1`
**A:** 8.52

**Q:** Look up and state reported cytotoxicity at 10 µM for `CN(C)CCn1ccnc1C1CCN(C(=O)CCc2cccnc2)CC1`
**A:** -2.21

**Q:** Look up and state reported cytotoxicity at 10 µM for `CN(C)C(=O)N1CC2(CCOCC2)c2cc(NC(=O)CCO)ccc21`
**A:** -6.13

**Q:** Look up and state reported cytotoxicity at 10 µM for `Cc1nnc(CN2CCN(Cc3nccn3C)CC2)n1C`
**A:** -2.4

**Q:** Look up and state reported cytotoxicity at 10 µM for `CCc1ccccc1OC1CN(C(=O)CN(C)Cc2ccncc2)C1`
**A:** -4.55

* * *

- assay-explanation: Toxicity liver stage against HepG2, at 10uM
- Format: cell-based
- Set-up: test concentration 10 uM, cell line HepG2-A16-CD81EGFP
- run-parameters: human, HepG2-A16-CD81EGFP cells; read-out: INHIBITION
observable: cytotoxicity at 10 µM (%)
A number alone suffices; assume %.

Take a look at these entries with their results.
>>> reported_measurement("CNC(=O)[C@H]1C[C@@H]2CN(C(=O)c3cscn3)C[C@@H]2N1S(C)(=O)=O")
-5.17
>>> reported_measurement("O=c1nc(SCc2ccncc2)c2c(n1CCO)CCC2")
6.9
>>> reported_measurement("Cc1cc(C)n(CC2CCCN2C(=O)CCc2cscn2)n1 (stereo not drawn)")
-10.4

**Q:** Look up and state reported cytotoxicity at 10 µM for `Cc1ccc(-c2nn(-c3cccc(F)c3)cc2CN(CCO)CCO)o1`
**A:** 8.43

**Q:** Look up and state reported cytotoxicity at 10 µM for `CC(=O)NCCc1ccc(S(=O)(=O)Nc2ccc(C)c(F)c2)s1`
**A:** 5.72
